- tested-system: hTRPC6 (Homo sapiens)
- Sequence (Q9Y210 whole entry): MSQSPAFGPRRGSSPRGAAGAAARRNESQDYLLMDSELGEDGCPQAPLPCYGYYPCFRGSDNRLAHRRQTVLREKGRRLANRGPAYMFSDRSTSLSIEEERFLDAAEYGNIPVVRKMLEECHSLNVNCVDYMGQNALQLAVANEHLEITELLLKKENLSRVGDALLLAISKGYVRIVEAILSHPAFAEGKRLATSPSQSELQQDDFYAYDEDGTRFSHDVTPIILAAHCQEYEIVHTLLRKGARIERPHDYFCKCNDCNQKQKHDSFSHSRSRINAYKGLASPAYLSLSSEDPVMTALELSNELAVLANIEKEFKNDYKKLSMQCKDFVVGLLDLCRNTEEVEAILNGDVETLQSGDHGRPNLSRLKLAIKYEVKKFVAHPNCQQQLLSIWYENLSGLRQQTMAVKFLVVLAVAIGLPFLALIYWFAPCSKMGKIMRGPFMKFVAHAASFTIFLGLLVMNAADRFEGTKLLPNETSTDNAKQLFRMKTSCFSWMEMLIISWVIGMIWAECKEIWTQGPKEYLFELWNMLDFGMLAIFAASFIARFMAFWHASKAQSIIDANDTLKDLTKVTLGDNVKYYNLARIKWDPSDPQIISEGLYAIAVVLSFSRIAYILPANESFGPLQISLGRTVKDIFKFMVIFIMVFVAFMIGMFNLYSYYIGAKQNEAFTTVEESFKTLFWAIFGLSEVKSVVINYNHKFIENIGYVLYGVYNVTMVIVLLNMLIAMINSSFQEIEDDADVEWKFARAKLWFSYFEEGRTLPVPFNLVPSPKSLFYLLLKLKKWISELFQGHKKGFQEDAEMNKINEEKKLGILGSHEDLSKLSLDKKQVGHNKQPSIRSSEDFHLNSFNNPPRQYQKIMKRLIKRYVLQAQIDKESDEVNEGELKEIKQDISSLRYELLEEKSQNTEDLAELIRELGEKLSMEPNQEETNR
- protocol-text: fura-2 intracellular calcium assay, OAG-activated hTRPC6 transfected in HEK […] cells
property: pIC50
Please keep in mind that pIC50 is minus log10 of the molar concentration; only the number is needed.

Q: Input COc1ccc(CCNC(CCc2ccc(OC)c(OC)c2)Cc2ccc(OC)c(OC)c2)cc1OC (racemic) [schwarzinicine A] , output reported pIC50.
Result: 5.15

----------
- tested-system: UniProt:Q9UBN4
- Sequence (Q9UBN4 1-977): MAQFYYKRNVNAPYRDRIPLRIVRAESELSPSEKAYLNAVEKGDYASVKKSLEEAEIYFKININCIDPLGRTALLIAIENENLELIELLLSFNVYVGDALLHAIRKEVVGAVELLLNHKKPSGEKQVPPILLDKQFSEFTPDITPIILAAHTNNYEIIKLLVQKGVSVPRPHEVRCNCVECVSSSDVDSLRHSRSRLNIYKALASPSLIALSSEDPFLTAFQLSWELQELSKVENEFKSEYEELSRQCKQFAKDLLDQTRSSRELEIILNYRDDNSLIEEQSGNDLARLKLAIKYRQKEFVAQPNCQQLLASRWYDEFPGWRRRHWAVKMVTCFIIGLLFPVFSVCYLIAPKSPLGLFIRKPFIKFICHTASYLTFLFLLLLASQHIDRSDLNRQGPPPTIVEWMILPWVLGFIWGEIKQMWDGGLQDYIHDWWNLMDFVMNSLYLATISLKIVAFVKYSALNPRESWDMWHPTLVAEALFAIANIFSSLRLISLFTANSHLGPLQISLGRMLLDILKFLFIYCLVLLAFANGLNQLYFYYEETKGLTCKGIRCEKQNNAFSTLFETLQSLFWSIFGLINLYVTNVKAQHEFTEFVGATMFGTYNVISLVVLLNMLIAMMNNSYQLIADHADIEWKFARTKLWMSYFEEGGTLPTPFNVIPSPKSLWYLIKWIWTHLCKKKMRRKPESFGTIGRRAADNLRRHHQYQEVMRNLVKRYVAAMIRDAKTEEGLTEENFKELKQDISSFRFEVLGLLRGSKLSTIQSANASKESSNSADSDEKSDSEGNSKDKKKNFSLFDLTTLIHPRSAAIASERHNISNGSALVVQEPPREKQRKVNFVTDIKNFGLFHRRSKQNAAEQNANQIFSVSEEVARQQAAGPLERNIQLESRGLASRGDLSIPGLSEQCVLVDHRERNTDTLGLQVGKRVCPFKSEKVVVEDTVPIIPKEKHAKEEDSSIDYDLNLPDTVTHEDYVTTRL
- protocol-text: fura-2 intracellular calcium assay, S1P-activated hTRPC4 overexpressed in HEK T-REx cells
property: IC50 (µM)
All answers are understood in µM, so give the number only.

Q: Input COc1ccc(CCNC(CCc2ccc(OC)c(OC)c2)Cc2ccc(OC)c(OC)c2)cc1OC (racemic) , output reported IC50.
Result: 17

----------
- tested-system: hTRPC3 (Homo sapiens, UniProt Q13507)
- Sequence (Q13507 whole entry): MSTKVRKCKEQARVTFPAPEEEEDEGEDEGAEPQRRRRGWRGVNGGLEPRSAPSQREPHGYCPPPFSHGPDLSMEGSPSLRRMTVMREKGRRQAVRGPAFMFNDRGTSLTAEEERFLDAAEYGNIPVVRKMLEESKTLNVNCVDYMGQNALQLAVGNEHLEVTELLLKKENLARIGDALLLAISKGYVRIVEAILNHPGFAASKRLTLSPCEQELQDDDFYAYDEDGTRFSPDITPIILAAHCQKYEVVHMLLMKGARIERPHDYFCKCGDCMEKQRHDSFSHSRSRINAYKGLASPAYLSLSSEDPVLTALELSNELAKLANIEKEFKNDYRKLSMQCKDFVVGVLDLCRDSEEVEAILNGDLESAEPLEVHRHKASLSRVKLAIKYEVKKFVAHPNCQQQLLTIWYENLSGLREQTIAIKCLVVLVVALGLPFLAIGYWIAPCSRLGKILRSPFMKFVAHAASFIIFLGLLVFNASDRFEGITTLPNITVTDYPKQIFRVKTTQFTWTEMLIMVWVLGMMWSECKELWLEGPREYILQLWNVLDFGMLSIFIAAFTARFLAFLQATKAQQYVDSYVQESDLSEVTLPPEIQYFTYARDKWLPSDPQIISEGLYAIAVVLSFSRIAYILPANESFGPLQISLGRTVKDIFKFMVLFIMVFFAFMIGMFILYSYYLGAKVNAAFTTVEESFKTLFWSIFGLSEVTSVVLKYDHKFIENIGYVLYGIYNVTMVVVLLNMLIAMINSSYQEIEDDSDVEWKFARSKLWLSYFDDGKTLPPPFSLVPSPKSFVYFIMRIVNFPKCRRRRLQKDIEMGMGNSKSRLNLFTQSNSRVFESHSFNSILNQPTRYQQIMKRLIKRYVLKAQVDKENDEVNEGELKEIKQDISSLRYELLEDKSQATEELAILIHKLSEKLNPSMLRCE
- protocol-text: fura-2 intracellular calcium assay, OAG-activated hTRPC3 overexpressed in HEK T-REx cells
property: IC50 (µM)
All answers are understood in µM, so give the number only.

Q: Please look at COc1ccc(CCNC(CCc2ccc(OC)c(OC)c2)Cc2ccc(OC)c(OC)c2)cc1OC (racemic) and tell me its recorded IC50 on hTRPC3 (Homo sapiens, UniProt Q13507).
Result: 3
